test: in vitro; format: in vitro ADME, mouse; conditions: both, CD-1, mouse, plasma, 4 h, 10 µM;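 note: sodium citrate stabilized mouse plasma, parent compound quantified by HPLC/MS/MS relative to its peak area at time zero, run in triplicate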
Please respond with Fulfilled when measured Plasma Stability 240 min mouse [% remain.] is strictly beneath 90 % remain., and with Not fulfilled in all other cases.

Request: Could you please tell me whether Plasma Stability 240 min mouse [% remain.] recorded for CN1CC(=O)N2C[C@@H](NC(=O)Cc3c[nH]c4ccccc34)C[C@H]2COc2ccc(F)cc2C(=O)N(C)[C@H](C(=O)NCCc2c[nH]c3ccccc23)CCC1=O [Ex. 12] is less than 90 % remain.?
Response: Not fulfilled

Request: Could you please tell me whether Plasma Stability 240 min mouse [% remain.] recorded for CN1CCC[C@H](NCC(C)(C)C)C(=O)N2C[C@@H](Oc3ccccc3)C[C@H]2COc2cccc(c2)C1=O [Ex. 563] is less than 90 % remain.?
Response: Fulfilled

Request: Could you please tell me whether Plasma Stability 240 min mouse [% remain.] recorded for CN1CCC[C@H](NC(=O)OCc2ccccc2)C(=O)N[C@@H]2C[C@@H](COc3ccc(F)cc3C1=O)N(C(=O)OC(C)(C)C)C2 [Ex. 403] is less than 90 % remain.?
Response: Fulfilled

Request: Could you please tell me whether Plasma Stability 240 min mouse [% remain.] recorded for CCCCC(=O)N[C@@H]1C[C@H]2COc3ccc(F)cc3C(=O)N(C)[C@H](C(=O)N(C)CCN(C)C)CCC(=O)N(C)CC(=O)N2C1 [Ex. 78] is less than 90 % remain.?
Response: Not fulfilled

Request: Could you please tell me whether Plasma Stability 240 min mouse [% remain.] recorded for CN(C)CCNC(=O)[C@H]1CCC(=O)N(C)CC(=O)N2CCN(C(=O)Cc3ccc4ccccc4c3)C[C@@H]2COc2ccc(F)cc2C(=O)N1C [Ex. 138] is less than 90 % remain.?
Response: Fulfilled

Request: Could you please tell me whether Plasma Stability 240 min mouse [% remain.] recorded for CN(C)CCNC(=O)[C@@H]1CCC(=O)N(C)CC(=O)N2C[C@@H](NC(=O)Nc3cccc4ccccc34)C[C@H]2COc2ccc(F)cc2C(=O)N1C [Ex. 482] is less than 90 % remain.?
Response: Not fulfilled

Request: Could you please tell me whether Plasma Stability 240 min mouse [% remain.] recorded for CN1C[C@H](NC(=O)OCc2ccccc2)C(=O)N(C)CC(=O)N2C[C@@H](NC(=O)Cc3c[nH]c4ccccc34)C[C@H]2COc2cccc(c2)C1=O [Ex. 200] is less than 90 % remain.?
Response: Not fulfilled

Request: Could you please tell me whether Plasma Stability 240 min mouse [% remain.] recorded for CN1CCC[C@H](N)C(=O)N2C[C@@H](OCc3ccc(-c4cncnc4)cc3)C[C@H]2COc2cccc(c2)C1=O [Ex. 577] is less than 90 % remain.?
Response: Not fulfilled

Request: Could you please tell me whether Plasma Stability 240 min mouse [% remain.] recorded for CCCCCCCCCC(=O)N[C@H]1C[C@H]2COc3ccc(F)cc3C(=O)N(C)[C@@H](C(=O)NCc3ccc4ccccc4c3)CCC(=O)N(C)CC(=O)N2C1 [Ex. 102] is less than 90 % remain.?
Response: Fulfilled

Request: Could you please tell me whether Plasma Stability 240 min mouse [% remain.] recorded for CN1CCC[C@H](N)C(=O)N2C[C@@H](OCc3ccc(-c4cccnc4)cc3)C[C@H]2COc2cccc(c2)C1=O [Ex. 578] is less than 90 % remain.?
Response: Fulfilled

Request: Could you please tell me whether Plasma Stability 240 min mouse [% remain.] recorded for CN1CCC[C@H](NC(=O)Cc2cccc3ccccc23)C(=O)N2C[C@@H](NC(=O)Cc3ccc4ccccc4c3)C[C@H]2COc2cccc(c2)C1=O [Ex. 505] is less than 90 % remain.?
Response: Not fulfilled
